molecular target: 11β-HSD2 Dehydrogenase (Homo sapiens, UniProt P80365); experiment: Inhibition of 11β-HSD2 dehydrogenase (Table 1); assay type: biochemical
Sequence (P80365 whole entry): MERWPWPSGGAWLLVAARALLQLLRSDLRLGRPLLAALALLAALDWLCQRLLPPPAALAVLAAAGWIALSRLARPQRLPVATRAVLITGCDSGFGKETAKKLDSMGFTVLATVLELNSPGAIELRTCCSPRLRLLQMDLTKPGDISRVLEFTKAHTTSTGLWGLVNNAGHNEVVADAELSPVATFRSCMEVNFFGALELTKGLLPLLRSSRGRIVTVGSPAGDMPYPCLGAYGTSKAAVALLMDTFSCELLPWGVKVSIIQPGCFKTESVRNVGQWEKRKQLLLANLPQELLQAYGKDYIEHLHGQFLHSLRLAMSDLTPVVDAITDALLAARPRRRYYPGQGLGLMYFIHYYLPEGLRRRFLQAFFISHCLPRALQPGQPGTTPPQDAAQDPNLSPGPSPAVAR

Compound: C[C@H](CCC(=O)O)[C@H]1CC[C@H]2[C@@H]3[C@H](O)C[C@@H]4C[C@H](O)CC[C@]4(C)[C@H]3CC[C@]12C
11β-HSD2 Dehydrogenase (inhibition): No Inhibition
--
Compound: CC(=O)[C@H]1CC[C@@H]2[C@@H]3CC[C@@H]4C[C@@H](O)CC[C@]4(C)[C@@H]3C(=O)C[C@]12C
11β-HSD2 Dehydrogenase (inhibition): Potent Inhibitor
--
Compound: C[C@]12CCC(=O)C[C@@H]1CC[C@@H]1[C@@H]2[C@@H](O)C[C@]2(C)[C@@H](C(=O)CO)CC[C@@H]12 [5α-dihydro- corticosterone]
11β-HSD2 Dehydrogenase (inhibition): Potent Inhibitor
--
Compound: C[C@]12CCC(=O)C=C1CC[C@@H]1[C@H]2C(=O)C[C@]2(C)C(=O)CC[C@H]12 (stereo in doubt)
11β-HSD2 Dehydrogenase (inhibition): No Inhibition

---

biological target: 11β-HSD2 Dehydrogenase (Homo sapiens, UniProt P80365); assay: Inhibition of 11β-HSD2 dehydrogenase (Table 1); format: biochemical
Measure name: 11β-HSD2 Dehydrogenase (inhibition)

Compound: CC(=O)[C@H]1CC[C@@H]2[C@@H]3CC[C@@H]4C[C@@H](O)CC[C@]4(C)[C@@H]3[C@@H](O)C[C@]12C [3α,5β-reduced- 11β-OH—progesterone]
Tested on: 11β-HSD2 Dehydrogenase (Homo sapiens, UniProt P80365)
Measure name: 11β-HSD2 Dehydrogenase (inhibition)
Assay result: No Inhibition
//
Compound: C[C@]12CC[C@@H]3[C@@H]([C@@H](O)C[C@]4(C=O)[C@@H](C(=O)CO)CC[C@H]34)[C@@]1(C)CC[C@H](O)C2
Tested on: 11β-HSD2 Dehydrogenase (Homo sapiens, UniProt P80365)
Measure name: 11β-HSD2 Dehydrogenase (inhibition)
Assay result: Potent Inhibitor
//
Compound: C[C@]12CC[C@H](O)C[C@@H]1CC[C@H]1[C@@H]3CC[C@H](C(=O)CO)[C@@]3(C)CC(=O)[C@@H]12
Tested on: 11β-HSD2 Dehydrogenase (Homo sapiens, UniProt P80365)
Measure name: 11β-HSD2 Dehydrogenase (inhibition)
Assay result: Potent Inhibitor
//
Compound: C[C@]12CC(=O)[C@@H]3[C@@H](CCC4=CC(=O)CC[C@@]43C)[C@H]1CC[C@@H]2O
Tested on: 11β-HSD2 Dehydrogenase (Homo sapiens, UniProt P80365)
Measure name: 11β-HSD2 Dehydrogenase (inhibition)
Assay result: No Inhibition
//
Compound: CC(=O)[C@H]1CC[C@@H]2[C@@H]3CCC4=CC(=O)CC[C@]4(C)[C@@H]3C(=O)C[C@]12C
Tested on: 11β-HSD2 Dehydrogenase (Homo sapiens, UniProt P80365)
Measure name: 11β-HSD2 Dehydrogenase (inhibition)
Assay result: Potent Inhibitor

---

molecular target: 11β-HSD1 Reductase (Rattus norvegicus); construct: an enzyme present in testicular Leydig cells; endogenous in cells; host or cells: freshly prepared rat Leydig cells; test: Inhibition of 11β-HSD1 reductase (Table 1); format: cell-based
Sequence (P16232 whole entry): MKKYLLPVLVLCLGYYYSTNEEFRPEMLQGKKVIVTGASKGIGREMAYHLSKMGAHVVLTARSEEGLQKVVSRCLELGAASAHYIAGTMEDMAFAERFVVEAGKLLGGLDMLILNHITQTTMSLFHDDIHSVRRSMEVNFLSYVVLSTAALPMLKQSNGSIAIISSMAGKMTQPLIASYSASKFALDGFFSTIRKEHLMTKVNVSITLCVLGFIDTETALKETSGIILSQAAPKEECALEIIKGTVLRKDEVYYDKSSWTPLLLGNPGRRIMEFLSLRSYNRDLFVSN

Compound: CC(=O)[C@H]1CC[C@@H]2[C@@H]3CC[C@@H]4C[C@@H](O)CC[C@]4(C)[C@@H]3[C@@H](O)C[C@]12C [3α,5β-reduced- 11β-OH—progesterone]
Tested on: 11β-HSD1 Reductase (Rattus norvegicus)
11β-HSD1 Reductase (inhibition): No Inhibition
--
Compound: CC(=O)[C@H]1CC[C@@H]2[C@@H]3CC[C@@H]4C[C@@H](O)CC[C@]4(C)[C@@H]3C(=O)C[C@]12C
Tested on: 11β-HSD1 Reductase (Rattus norvegicus)
11β-HSD1 Reductase (inhibition): Selective Inhibitor
--
Compound: C[C@]12CC[C@H](O)C[C@@H]1CC[C@@H]1[C@@H]2C(=O)C[C@]2(C)C(=O)CC[C@@H]12
Tested on: 11β-HSD1 Reductase (Rattus norvegicus)
11β-HSD1 Reductase (inhibition): Selective Inhibitor
--
Compound: C[C@]12CC[C@H](O)C[C@H]1CC[C@@H]1[C@H]2[C@@H](O)C[C@@]2(C)[C@@H]1CC[C@@H]2O [3α,5α-reduced- 11β-OH—testosterone]
Tested on: 11β-HSD1 Reductase (Rattus norvegicus)
11β-HSD1 Reductase (inhibition): No Inhibition
--
Compound: C[C@H](CCC(=O)O)[C@H]1CC[C@H]2[C@@H]3[C@H](O)C[C@@H]4C[C@H](O)CC[C@]4(C)[C@H]3CC[C@]12C
Tested on: 11β-HSD1 Reductase (Rattus norvegicus)
11β-HSD1 Reductase (inhibition): No Inhibition
--
Compound: C[C@]12CC[C@H](O)C[C@@H]1CC[C@@H]1[C@@H]2[C@@H](O)C[C@]2(C)[C@@H](C(=O)CO)CC[C@@H]12
Tested on: 11β-HSD1 Reductase (Rattus norvegicus)
11β-HSD1 Reductase (inhibition): No Inhibition
--
Compound: C[C@]12CC[C@H](O)C[C@H]1CC[C@@H]1[C@H]2[C@@H](O)C[C@]2(C)C(=O)CC[C@H]12
Tested on: 11β-HSD1 Reductase (Rattus norvegicus)
11β-HSD1 Reductase (inhibition): No Inhibition
--
Compound: C[C@]12CC(=O)[C@@H]3[C@@H](CCC4=CC(=O)CC[C@@]43C)[C@H]1CC[C@@H]2O
Tested on: 11β-HSD1 Reductase (Rattus norvegicus)
11β-HSD1 Reductase (inhibition): Selective Inhibitor
--
Compound: CC(=O)[C@H]1CC[C@@H]2[C@@H]3CCC4=CC(=O)CC[C@]4(C)[C@@H]3[C@@H](O)C[C@]12C
Tested on: 11β-HSD1 Reductase (Rattus norvegicus)
11β-HSD1 Reductase (inhibition): No Inhibition
